# TARGET: CREBBP (1084-1701) (Homo sapiens)
# Construct: measured in the following biochemical assay using CREBBP (1084-1701); purchased
# ASSAY PROCEDURE: Biochemical assay for CREBBP (1084-1701), SAMDI
# STUDY CONDITIONS: SAMDI, read-out: CREBBP Biochemistry IC50
# Procedure: The following example describes materials and methods relating to a biochemical assay for CREBBP (1084-1701). IC50 values (micromolar (μM)) are summarized in Table 1, Table 2, and Table 3 under the column labeled: “CREBBP Biochemistry IC50 (micromolar).” […] METHODS: The effect of compounds was measured in the following biochemical assay using CREBBP (1084-1701). […] The SAMDI biochip was then read on the mass spectrometer.
Could you please report measured log10(IC50) for the items listed next?
All values: base-10 log of IC50 in nM.

Reference set (6 entries):
CCn1ncc(CN(C)C(=O)c2cc(-c3cnc(CN(C)C)[nH]3)nc3ccc(Cl)cc23)c1C | 3.60
Cc1c(CN(C)C(=O)c2nc(-c3ccccc3Cl)nc3ccc(Cl)cc23)cnn1C(C)C | 1.91
CCn1ncc(CN(C)C(=O)c2nc(-c3cc4c(N)n[nH]c4cc3C)nc3ccc(Br)cc23)c1C | 1.08
CCc1ncc(CN(C)C(=O)c2cc(-c3ccc(NCC(O)CNC)c(C)n3)nc3ccc(Cl)cc23)n1C (stereo not shown) | 1.40
CCc1ncc(CN(C)C(=O)c2cc(-c3cc(C(=O)NC)n(C)n3)nc3ccc(COC)cc23)n1C | 1.70
CCn1ncc(CN(C)C(=O)c2nc(-c3cc(C)c4c(=O)[nH][nH]c4c3)nc3ccc(Cl)cc23)c1C | 1.01

input: Suppose we examine the molecule CCn1ncc(CN(C)C(=O)c2nc(-c3cc4c(N)n(CCNC)nc4cc3C)nc3ccc(Cl)cc23)c1C ; what log10(IC50) value has been reported?
output: 1.85

* * *

# TARGET: EP300 (P300(1048-1664)) (Homo sapiens)
# Construct: P300(1048-1664)
# Sequence (Q09472 1048-1664): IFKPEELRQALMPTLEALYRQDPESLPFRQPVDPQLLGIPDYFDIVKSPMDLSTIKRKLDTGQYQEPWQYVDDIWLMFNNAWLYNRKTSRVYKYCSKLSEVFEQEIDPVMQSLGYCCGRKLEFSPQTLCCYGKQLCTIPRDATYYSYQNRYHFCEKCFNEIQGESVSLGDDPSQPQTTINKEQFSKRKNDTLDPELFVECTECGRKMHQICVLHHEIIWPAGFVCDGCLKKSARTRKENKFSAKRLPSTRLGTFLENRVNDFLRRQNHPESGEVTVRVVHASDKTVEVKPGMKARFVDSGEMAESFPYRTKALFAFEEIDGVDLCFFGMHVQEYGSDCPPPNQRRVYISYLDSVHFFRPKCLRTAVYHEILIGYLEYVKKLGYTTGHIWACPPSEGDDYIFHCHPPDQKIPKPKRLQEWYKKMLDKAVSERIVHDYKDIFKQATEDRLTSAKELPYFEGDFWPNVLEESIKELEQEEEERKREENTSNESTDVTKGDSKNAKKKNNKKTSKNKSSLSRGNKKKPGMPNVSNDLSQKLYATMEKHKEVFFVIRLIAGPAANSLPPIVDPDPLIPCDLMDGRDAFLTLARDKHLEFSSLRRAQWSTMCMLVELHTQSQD
# ASSAY PROCEDURE: Biochemical assay for EP300, SAMDI
# STUDY CONDITIONS: EP300, SAMDI; read-out: EP300 Biochemistry IC50
pIC50: −log10 of the molar value.
I would appreciate it if you labelled entries condition met when pIC50 is 6 or higher, otherwise condition not met.

CCn1ncc(CN(C)C(=O)c2cc(-c3cc4n[nH]cc4cn3)nc3ccc(Cl)cc23)c1C | condition met
CCn1ncc(CN(C)C(=O)c2nc(-c3cc4c(NC)n[nH]c4cc3C)nc3ccc(Br)cc23)c1C | condition met
CCn1ncc(CN(C)C(=O)c2nc(-c3cn(CCNC)cn3)nc3ccc(Cl)cc23)c1C | condition not met

input: Assess whether reported pIC50 for CCn1ncc(CN(C)C(=O)c2nc(-c3ccc(OCCNC)c(Cl)c3)nc3ccc(Cl)cc23)c1C sits at 6 or higher.
output: condition met

input: Could you please find out whether CCn1ncc(CN(C)C(=O)c2nc(-n3nc(N)c4ccc(C)cc43)nc3ccc(Cl)cc23)c1C has pIC50 that meets 6 or exceeds it?
output: condition not met

input: Given the entry CCn1ncc(CN(C)C(=O)c2nc(-c3cc(-c4ncon4)n(C)n3)nc3ccc(Cl)cc23)c1C , answer whether its pIC50 meets or surpasses 6.
output: condition not met

input: Assess whether reported pIC50 for CCn1ncc(CN(C)C(=O)c2nc(-c3cc(C)c4n[nH]cc4c3)nc3ccc(Cl)cc23)c1C sits at 6 or higher.
output: condition met

input: Test whether the molecule CCn1ncc(CN(C)C(=O)c2nc(-c3cc(C#N)n(C)n3)nc3ccc(Cl)cc23)c1C records pIC50 of 6 or higher.
output: condition not met

* * *

# TARGET: EP300 (P300(1048-1664)) (Homo sapiens)
# Construct: P300(1048-1664)
# ASSAY PROCEDURE: Biochemical assay for EP300, SAMDI
# STUDY CONDITIONS: EP300, SAMDI; read-out: EP300 Biochemistry IC50
The label Met is reserved for IC50 strictly under 2 µM; Not met covers values equal to or above it.

input: Item CCn1ncc(CN(C)C(=O)c2cc(-c3ccc(NCCNC)c(C)n3)nc3ccc(Cl)cc23)c1C1CC1 : IC50 beneath 2 µM, strictly?
output: Met

* * *

Please provide measured pIC50 for the entries that follow.
# TARGET: CREBBP (1084-1701) (Homo sapiens, UniProt Q92793)
# Construct: measured in the following biochemical assay using CREBBP (1084-1701); purchased
# Sequence (Q92793 1084-1701): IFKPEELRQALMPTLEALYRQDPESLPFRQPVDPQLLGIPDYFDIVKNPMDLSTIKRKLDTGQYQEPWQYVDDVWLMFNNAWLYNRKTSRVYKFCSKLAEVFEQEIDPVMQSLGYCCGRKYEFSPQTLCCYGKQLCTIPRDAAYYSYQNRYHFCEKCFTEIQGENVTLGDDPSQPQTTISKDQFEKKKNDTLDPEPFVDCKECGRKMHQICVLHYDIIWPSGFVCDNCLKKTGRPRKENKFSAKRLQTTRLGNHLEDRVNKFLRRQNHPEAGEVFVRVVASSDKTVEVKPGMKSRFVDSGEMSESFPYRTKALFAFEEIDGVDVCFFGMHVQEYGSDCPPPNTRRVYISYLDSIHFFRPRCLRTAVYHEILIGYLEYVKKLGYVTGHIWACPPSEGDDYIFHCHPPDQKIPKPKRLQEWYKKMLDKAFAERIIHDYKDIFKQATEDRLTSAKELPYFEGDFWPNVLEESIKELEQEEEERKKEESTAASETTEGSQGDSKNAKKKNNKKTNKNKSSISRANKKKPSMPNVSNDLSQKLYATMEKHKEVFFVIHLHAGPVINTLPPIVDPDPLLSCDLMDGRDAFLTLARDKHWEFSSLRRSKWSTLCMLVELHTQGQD
# ASSAY PROCEDURE: Biochemical assay for CREBBP (1084-1701), SAMDI
# STUDY CONDITIONS: SAMDI, read-out: CREBBP Biochemistry IC50
Answers are plain numbers, as −log10 of the molar value.

Below: 5 compounds and their reported pIC50.
CCn1ncc(CN(C)C(=O)c2nc(-c3cc(C(=O)NC)nn3C)nc3ccc(Cl)cc23)c1C [Compound 391] | 5.07
CCn1ncc(CN(C)C(=O)c2cc(-c3ccccc3OC)nc3ccccc23)c1C [Compound 351] | 4.49
CCn1ncc(CN(C)C(=O)c2cc(-c3ccnc(N)c3)nc3ccc(Cl)cc23)c1C [Compound 94] | 5.68
CCn1ncc(CN(C)C(=O)c2cc(-c3cc4n[nH]cc4cn3)nc3ccc(Cl)cc23)c1C [Compound 437] | 8.11
CCc1nc(-c2cc(C(=O)N(C)Cc3cnn(CC)c3C)c3cc(Cl)ccc3n2)ccc1NCCN(C)C [Compound 573] | 7.33

List the reported pIC50 of each compound below.
1. CCn1ncc(CN(C)C(=O)c2nc(-c3cc(C)cc(NC4CCNC4)c3)cc3ccc(Cl)cc23)c1C (centres unmarked) [Compound 383]
2. CCc1ncc(CN(C)C(=O)c2nc(-c3cc(C)nc(NCCNC)c3)nc3ccc(COC)cc23)n1C [Compound 527]

output:
7.77
7.17

input: Can you share its pIC50? I mean this compound: CCn1ncc(CN(C)C(=O)c2nc(-c3ccccc3Cl)nc3ccc(COC)cc23)c1C [Compound 276]
output: 6.21

* * *

# TARGET: EP300 (P300(1048-1664)) (Homo sapiens)
# Construct: P300(1048-1664)
# ASSAY PROCEDURE: Biochemical assay for EP300, SAMDI
# STUDY CONDITIONS: EP300, SAMDI; read-out: EP300 Biochemistry IC50
# Source text: The following example describes materials and methods relating to a biochemical assay for EP300. IC50 values (micromolar (μM)) are summarized in Table 1, Table 2, and Table 3 under the column labeled: “EP300 Biochemistry IC50 (micromolar).”
MEASURED METRIC: IC50
# number then unit; no other words

Sample records with IC50:
CCn1ncc(CN(C)C(=O)c2nc(-c3cn[nH]c3C)nc3ccc(Cl)cc23)c1C | 6300 nM
CCn1ncc(CN(C)C(=O)c2cc(-c3cn(C)cn3)nc3ccc(Cl)cc23)c1C | 1300 nM
CCn1ncc(CN(C)C(=O)c2nc(-c3cc(C(=O)NC)n(C)n3)nc3ccc(Cl)cc23)c1C | 10 nM

Kindly consider the entry below.
input: Recorded IC50 of CCn1ncc(CN(C)C(=O)c2cc(-c3ccc(NC4COC4)c(C)n3)nc3ccc(Cl)cc23)c1C , please.
output: 5.5 nM

* * *

Kindly state pIC50 for each of the entries shown.
# System: H3K18Ac in HB-CLS-2 cells
# ASSAY PROCEDURE: H3K18AC in-cell western (ICW) assay
# Assay type: cell-based
# STUDY CONDITIONS: H3K18Ac in-cell western; read-out: CREBBP ICW IC50
Numbers only, as −log10 of the molar value.

CCn1ncc(CN(C)C(=O)c2nc(-c3cc4[nH]ncc4nc3C)nc3ccc(Cl)cc23)c1C | 6.22
CCn1ncc(CN(C)C(=O)c2nc(-c3cc(C)nc(NCCOC)c3)nc3ccc(Cl)cc23)c1C | 6.46

I'm hoping you can list pIC50 for every molecule here, please.
1. CCn1ncc(CN(C)C(=O)c2nc(-c3cc(NC)c4cn[nH]c4c3)nc3ccc(Cl)cc23)c1C
2. CCc1nn(C)c(CN(C)C(=O)c2cc(-c3ccc(NCCN(C)C)c(C)n3)nc3ccc(Cl)cc23)c1C
3. CCn1ncc(CN(C)C(=O)c2cc(-c3ccc(NCCNS(C)(=O)=O)c(C)n3)nc3ccc(Cl)cc23)c1C
4. CCc1ncc(CN(C)C(=O)c2nc(-c3cc(C)c4c(N)[nH]nc4c3)nc3ccc(Cl)cc23)n1C
5. CCn1ncc(CN(C)C(=O)c2nc(N3CCCNCC3)nc3ccc(Cl)cc23)c1C

output:
1: 6.82; 2: 5.10; 3: 6.86; 4: 7.33; 5: 4.70
